The values you see were collected from paper PMC4806436.

target: TbPARP (Trypanosoma brucei brucei, UniProt Q0PW89); assay: biochemical; conditions: 5 nM TbPARP, 500 nM NAD+, 11 min at 25 °C; mean of three dose-response curves; read-out: TbPARP pIC50 ± SEM (converted)
Sequence (Q0PW89 entry or part of it): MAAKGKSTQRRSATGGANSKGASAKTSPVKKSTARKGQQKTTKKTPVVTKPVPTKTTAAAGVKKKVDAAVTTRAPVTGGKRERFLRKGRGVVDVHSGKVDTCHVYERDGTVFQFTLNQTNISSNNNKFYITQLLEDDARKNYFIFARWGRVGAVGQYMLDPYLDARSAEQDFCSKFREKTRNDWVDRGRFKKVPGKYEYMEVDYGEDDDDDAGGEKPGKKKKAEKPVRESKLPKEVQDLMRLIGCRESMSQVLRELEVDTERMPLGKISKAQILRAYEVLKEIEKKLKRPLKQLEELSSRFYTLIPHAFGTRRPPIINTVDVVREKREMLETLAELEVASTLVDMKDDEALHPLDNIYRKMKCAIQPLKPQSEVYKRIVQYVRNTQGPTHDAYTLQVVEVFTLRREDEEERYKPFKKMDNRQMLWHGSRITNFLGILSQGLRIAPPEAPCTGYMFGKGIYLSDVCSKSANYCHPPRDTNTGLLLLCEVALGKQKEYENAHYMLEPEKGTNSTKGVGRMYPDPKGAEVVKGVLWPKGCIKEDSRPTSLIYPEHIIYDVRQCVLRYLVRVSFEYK
I'd appreciate it if you marked entries fulfilled when IC50 is lower than 100 nM and not fulfilled when it is not.

Determine whether this compound shows IC50 lower than 100 nM (ties excluded): CN(C)CC(=O)Nc1ccc2[nH]c(=O)c3ccccc3c2c1 [PJ-34]
not fulfilled

Next: O=C(c1cc(Cc2n[nH]c(=O)c3ccccc23)ccc1F)N1CCN(C(=O)C2CC2)CC1 [Olaparib]
fulfilled

Try this compound next: CNCc1ccc(-c2[nH]c3cc(F)cc4c3c2CCNC4=O)cc1 [Rucaparib]
not fulfilled

Try this compound next: Nc1ncnc2c1ncn2[C@@H]1O[C@H](C(=O)N2CCN(CC(=O)Nc3cccc4c3CNC4=O)CC2)[C@@H](O)[C@H]1O [EB-47]
fulfilled

Also, NC(=O)c1cccc(N)c1 [Compound 3-AB, 3-aminobenzamide] please.
not fulfilled

Field entry: O=c1[nH]ccc2c(O)cccc12 [1,5-Isoquinolinediol, 5-hydroxy-1,2-dihydroisoquinolin-1-one]
not fulfilled

Another compound: Oc1nc(C2CC2)nc2c1CSCC2 [RF03876]
not fulfilled

Now the compound C[C@]1(c2nc3c(C(N)=O)cccc3[nH]2)CCCN1 [Veliparib]
fulfilled

Record: Nc1ccc2c3c(cccc13)C(=O)NC2=O [Compound 4-ANI]
fulfilled
